B1: TPR 5TU (parent)
chain: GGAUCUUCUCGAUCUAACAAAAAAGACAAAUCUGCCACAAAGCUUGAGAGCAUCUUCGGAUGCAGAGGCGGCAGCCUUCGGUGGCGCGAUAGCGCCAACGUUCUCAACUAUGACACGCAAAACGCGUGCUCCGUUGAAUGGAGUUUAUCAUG

# Variants of: B1
# protocol: polymerase ribozyme fitness, log enrichment relative to wild type (log ratio); higher = more active; in vitro selection for triplet polymerase activity
Variants at the floor of the assay were thinned out.
Catalogue of polymerase ribozyme fitness (log ratio) values
recordedEndpoint: polymerase ribozyme fitness (log ratio)

• U55A G83A = -0.501
• C57G C87U A89C C116A C132A = -4.13
• G81A G86C A89U C125U C131U A137G = -4.06
• U9G U33A G50A = -4.2
• A21U C75G = -4.03
• C14G U56A = -2.57
• A40G C54U C96U G141U = -2.2
• C54U C75G = -3.81
• C38G C85A G94U C103G = -2.31
• G58U G86A = -1.55
• C27U G65C A66C A73U C93A C108G C129G = -3.81
• A12U A20G A21C U31A C35G G86U A91G A119U G128C = -3.91
• U4C A52G G58U = -0.303
• A16C U82A C95G G141A = -3.41
• C57U G117C A122G = 0.204
• C99U U145G = -2.09
• C69G C75G = -2.12
• A19U C96G A142C = -2.72
• C99U A107U = -3.88
• C87U U144G = -0.986
• A40C C96U A150G = -1.3
• G25U = -1.73
• U55G A91U A106G G117U = -4.18
• A22G C32U A120G C125U = -3.24
• A49G A91G A142C = -3.71
• A19C A24U C57G C75U G92U C118A = -0.536
• A20U C96G = -0.585
• G50U C72U A97C = -0.611
• A12G A16C A119U A121G U135C U146A A150G = -4.12
• U56A C96U A119U = -0.585
• G58U G83C = -0.165
• A16G C57G C76A = -1.31
• G59U C85G A119U G128A = -4.19
• C35U A52G = -0.53
• C36U C114U = -3.21
• C57G A113G = -3.44
